B1: Chromodomain-helicase-DNA-binding protein 3, residues 374 to 426; numbered along this chain, Q12873 (parent)
chain: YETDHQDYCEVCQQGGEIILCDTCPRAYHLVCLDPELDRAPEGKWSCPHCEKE

variants of: B1; assay: abundance fitness (aPCA) (normalised: wild type 0, dead -1); higher = more abundant; growth selection in yeast, the domain comes from the species named; settings: Homo sapiens
OBSERVATION_TYPE: abundance fitness

INSERT INTO measurements (mutant_id, recorded_number) VALUES
  ('C9N', -0.353),
  ('V31L', -0.17),
  ('E10G', -0.139),
  ('L30I', -0.27),
  ('L37E', -0.732),
  ('G15V', -0.609),
  ('E36A', -0.029),
  ('E10V', 0.137),
  ('C9W', -0.716),
  ('C9V', -0.633),
  ('V11S', 0.284);
